# Target: M4 (Homo sapiens)
# Sequence (P08173 whole entry): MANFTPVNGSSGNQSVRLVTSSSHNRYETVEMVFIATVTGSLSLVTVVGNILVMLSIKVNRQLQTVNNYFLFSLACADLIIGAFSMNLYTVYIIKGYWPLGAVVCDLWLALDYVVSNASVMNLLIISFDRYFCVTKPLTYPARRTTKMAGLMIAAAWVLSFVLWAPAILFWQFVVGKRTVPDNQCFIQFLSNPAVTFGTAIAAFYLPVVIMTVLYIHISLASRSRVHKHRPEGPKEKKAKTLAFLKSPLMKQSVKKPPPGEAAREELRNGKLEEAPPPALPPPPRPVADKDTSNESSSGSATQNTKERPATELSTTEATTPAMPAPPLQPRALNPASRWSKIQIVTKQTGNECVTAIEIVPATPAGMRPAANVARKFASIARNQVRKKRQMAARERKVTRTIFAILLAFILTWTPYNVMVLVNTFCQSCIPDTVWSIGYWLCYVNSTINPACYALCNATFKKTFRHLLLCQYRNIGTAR
# Assay procedure: M4 functional activation
# Assay type: cell-based
Readout: EC50

Qu. Query for M4 (Homo sapiens): what EC50 does the record show for O=c1[nH]c2ccccc2n1C1CCN(C2CCN(S(=O)(=O)c3ccccc3)CC2)CC1 [9c] ?
Ans. > 30 µM

###

# Target: M5 (Homo sapiens, UniProt P08912)
# Sequence (P08912 whole entry): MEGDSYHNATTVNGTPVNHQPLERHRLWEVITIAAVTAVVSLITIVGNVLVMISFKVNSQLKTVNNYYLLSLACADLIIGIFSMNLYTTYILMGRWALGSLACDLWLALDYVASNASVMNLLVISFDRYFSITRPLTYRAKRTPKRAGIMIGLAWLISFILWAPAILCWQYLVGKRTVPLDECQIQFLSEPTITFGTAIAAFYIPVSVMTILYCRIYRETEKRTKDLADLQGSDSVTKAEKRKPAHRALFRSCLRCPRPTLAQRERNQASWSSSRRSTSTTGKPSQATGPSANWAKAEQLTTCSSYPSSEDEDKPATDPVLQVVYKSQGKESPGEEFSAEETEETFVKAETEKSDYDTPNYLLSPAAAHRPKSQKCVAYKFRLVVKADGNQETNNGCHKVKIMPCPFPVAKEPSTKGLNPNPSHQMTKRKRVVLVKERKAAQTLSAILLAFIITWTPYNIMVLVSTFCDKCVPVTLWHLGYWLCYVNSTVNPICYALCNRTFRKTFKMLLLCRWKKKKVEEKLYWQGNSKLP
# Assay procedure: M5 functional activation
# Assay type: cell-based
Readout: EC50

Qu. # query: EC50 | item O=c1[nH]c2ccccc2n1C1CCN(C2CCN(S(=O)(=O)c3ccccc3)CC2)CC1 [9c] | system: M5 (Homo sapiens, UniProt P08912)
Ans. > 30 µM

// data source = paper PMC3177607
